target: JAK1 (Homo sapiens, UniProt P23458); construct: purchased Invitrogen; test: JAK1 enzyme inhibition test (LANCE method); format: biochemical; conditions: 1 μM test compound; read-out: JAK1 enzyme inhibitory activity (%, 1 μM)
Sequence (P23458 whole entry): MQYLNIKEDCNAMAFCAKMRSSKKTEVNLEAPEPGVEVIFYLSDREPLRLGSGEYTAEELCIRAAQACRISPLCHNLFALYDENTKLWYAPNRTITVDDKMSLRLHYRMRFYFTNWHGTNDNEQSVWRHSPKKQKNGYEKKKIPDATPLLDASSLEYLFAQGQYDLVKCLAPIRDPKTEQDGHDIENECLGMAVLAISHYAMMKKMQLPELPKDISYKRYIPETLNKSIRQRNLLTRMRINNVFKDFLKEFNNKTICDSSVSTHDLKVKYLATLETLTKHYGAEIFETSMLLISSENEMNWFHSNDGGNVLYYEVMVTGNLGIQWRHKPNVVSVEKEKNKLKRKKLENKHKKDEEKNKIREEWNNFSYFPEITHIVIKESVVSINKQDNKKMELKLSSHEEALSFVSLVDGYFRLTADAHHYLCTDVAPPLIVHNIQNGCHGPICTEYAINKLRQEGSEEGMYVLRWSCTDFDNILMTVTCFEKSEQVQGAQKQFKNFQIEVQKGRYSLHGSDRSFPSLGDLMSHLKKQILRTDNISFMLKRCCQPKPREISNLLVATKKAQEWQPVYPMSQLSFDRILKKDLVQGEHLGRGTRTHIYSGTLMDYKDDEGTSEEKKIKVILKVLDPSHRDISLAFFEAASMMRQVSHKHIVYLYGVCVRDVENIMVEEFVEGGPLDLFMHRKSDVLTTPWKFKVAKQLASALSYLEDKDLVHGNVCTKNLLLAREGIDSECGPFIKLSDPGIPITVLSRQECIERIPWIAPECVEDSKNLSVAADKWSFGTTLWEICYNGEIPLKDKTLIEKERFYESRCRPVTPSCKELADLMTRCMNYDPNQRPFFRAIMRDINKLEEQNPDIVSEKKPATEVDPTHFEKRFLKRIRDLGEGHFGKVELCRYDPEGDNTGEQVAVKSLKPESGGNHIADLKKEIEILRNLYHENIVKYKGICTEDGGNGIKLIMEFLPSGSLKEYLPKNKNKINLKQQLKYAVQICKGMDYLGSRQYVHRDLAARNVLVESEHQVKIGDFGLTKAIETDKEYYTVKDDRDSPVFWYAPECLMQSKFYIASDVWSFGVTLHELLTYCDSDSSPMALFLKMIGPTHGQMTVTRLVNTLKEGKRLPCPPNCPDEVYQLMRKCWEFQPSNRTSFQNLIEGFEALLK
observed_property: inhibition at 1 µM (%)
// return numeric value only (unit: %, not printed)

Answered cases to consult:
                                   compound  units_symbol  endpoint_result
0  Cn1nc(-c2cn(C3CCCC3(C)C)c(=O)c3c(N)n[nH]c23)cc1N1CCOCC1 (racemic) [Example 73]             %               99
1  CCOC(=O)C(C(C)C)n1cc(-c2cc(N3CCOCC3)n(C)n2)c2[nH]nc(N)c2c1=O (stereo not shown) [Example 84]             %               84
2  CC(C)[C@H](C)n1cc(-c2cc(N3CCC(C)(O)CC3)n(C)n2)c2[nH]nc(N)c2c1=O [Example 18]             %               96
3  CC(C)[C@H](C)n1cc(-c2cc(N3CCC(C(C)(C)O)CC3)n(C)n2)c2[nH]nc(N)c2c1=O [Example 15]             %               97
4  CC(C)[C@H](C)n1cc(-c2cc(N3CCS(=O)(=O)CC3)n(C)n2)c2[nH]nc(N)c2c1=O [Example 12]             %               93
5  CC(C)[C@H](C)n1cc(-c2cc(C(=O)N3CCS(=O)(=O)CC3)n(C)n2)c2[nH]nc(N)c2c1=O [Example 45]             %               98

Note: attention shifts to another entry.
Look at this compound and give its reported inhibition at 1 µM. CC(C)[C@H](C)n1cc(-c2cc(N3CCCCC3)n(C)n2)c2[nH]nc(N)c2c1=O [Example 19] 98
